Experiment: Effect of pH on aqueous solubility
Settings: water, pH adjusted with NaOH or HCl, 21 °C, pH 1, aqueous buffer, thermodynamic from solid
RECORDED ENDPOINT: solubility at 30 min (µg/mL)

>  <COMPOUND>
NCCCCCCCCCCCC(O)(P(=O)(O)O)P(=O)(O)O [Compound 9]

>  <ENDPOINT VALUE>
80

$$$$

[a] NCCCCCCCCCCC(O)(P(=O)(O)O)P(=O)(O)O [Compound 8]
[b] NCCCCCCCCC(O)(P(=O)(O)O)P(=O)(O)O [Compound 6]
Asked: Hey, which is lower on measured solubility at 30 min, a or b ? Reply briefly: the label of your chosen item.
Given back: a

----------
Test: Protonation constants by (traditional) potentiometric titration (TPT), SUPERQUAD
Details: overall protonation, zero level H2L2−, 0.1 M NaNO3, 25 °C
RECORDED ENDPOINT: logβx ± 3σ, x = −1 (HL3−)

>  <COMPOUND>
NCCC(O)(P(=O)(O)O)P(=O)(O)O

>  <logβx ± 3σ, x = −1 (HL3−)>
−10.04

$$$$
>  <COMPOUND>
NCCCCCCCC(O)(P(=O)(O)O)P(=O)(O)O

>  <logβx ± 3σ, x = −1 (HL3−)>
−10.67

$$$$
>  <COMPOUND>
NCCCCC(O)(P(=O)(O)O)P(=O)(O)O

>  <logβx ± 3σ, x = −1 (HL3−)>
−10.78

$$$$
>  <COMPOUND>
NCCCC(O)(P(=O)(O)O)P(=O)(O)O [Compound 2, reference compound]

>  <logβx ± 3σ, x = −1 (HL3−)>
−10.69

$$$$
>  <COMPOUND>
NCCCCCC(O)(P(=O)(O)O)P(=O)(O)O [Compound 4, reference compound]

>  <logβx ± 3σ, x = −1 (HL3−)>
−10.86

$$$$

----------
Experiment: Effect of pH on aqueous solubility
Settings: water, pH adjusted with NaOH or HCl, 21 °C, pH 8, aqueous buffer, thermodynamic from solid
RECORDED ENDPOINT: solubility at 30 min (mg/mL)

>  <MOLECULAR STRING>
NCCCCCCCCCCCC(O)(P(=O)(O)O)P(=O)(O)O

>  <VALUE UNIT>
mg/mL

>  <solubility at 30 min>
0.24

$$$$

[P] NCCCCCCCCC(O)(P(=O)(O)O)P(=O)(O)O
[Q] NCCCCCCCCCCC(O)(P(=O)(O)O)P(=O)(O)O
Asked: Exercise: compare P and Q ; which one has the greater solubility at 30 min? Reply briefly: the label of your chosen item.
Given back: P

----------
Experiment: pKa determination with Sirius instrument (PCA200)
RECORDED ENDPOINT: pKa 4 (Sirius)

[P] NCCCCC(O)(P(=O)(O)O)P(=O)(O)O
[Q] NCCC(O)(P(=O)(O)O)P(=O)(O)O
Asked: Exercise: compare P and Q ; which one has the greater pKa 4 (Sirius)? Reply briefly: the label of your chosen item.
Given back: Q
(Q: 10.05, P: 6.40)

----------
Test: Aqueous solubility of saturated solution at 21 °C (phosphorus determination by molybdenum blue spectrophotometry)
Conditions: 21 °C, water, thermodynamic from solid
RECORDED ENDPOINT: solubility at 30 min (µg/mL)
Express your answer in µg/mL, writing the number without its unit.

Asked: // Input: NCCCCCC(O)(P(=O)(O)O)P(=O)(O)O [Compound 4, reference compound] . Output its solubility at 30 min only.
Given back: 3420

----------
Experiment: Effect of temperature on aqueous solubility
Conditions: Milli-Q water, unbuffered, 7.6 °C, thermodynamic from solid
RECORDED ENDPOINT: solubility at 24 h (µg/mL)
Express your answer in µg/mL, writing the number without its unit.

Asked: // Input: NCCCCCCCC(O)(P(=O)(O)O)P(=O)(O)O . Output its solubility at 24 h only.
Given back: 1900

----------
Assay: Effect of temperature on aqueous solubility
Details: 40 °C, water, thermodynamic from solid
RECORDED ENDPOINT: solubility at 24 h (µg/mL)
Express your answer in µg/mL, writing the number without its unit.

Asked: // Input: NCCCCCC(O)(P(=O)(O)O)P(=O)(O)O [Compound 4, reference compound] . Output its solubility at 24 h only.
Given back: 7620

----------
Assay: Aqueous solubility of saturated solution at 21 °C (phosphorus determination by molybdenum blue spectrophotometry)
Details: Milli-Q water, unbuffered, 21 °C, water, thermodynamic from solid
RECORDED ENDPOINT: solubility at 30 min (µg/mL)

>  <MOLECULAR STRING>
NCCCCC(O)(P(=O)(O)O)P(=O)(O)O

>  <solubility at 30 min [µg/mL]>
4010

$$$$

[P] NCCCCCCCCCC(O)(P(=O)(O)O)P(=O)(O)O
[Q] NCCCCCCCCCCCCCCCC(O)(P(=O)(O)O)P(=O)(O)O
[R] NCCCCCCCCC(O)(P(=O)(O)O)P(=O)(O)O
Asked: Order the entries by their reported solubility at 30 min, beginning at the minimum. In your reply, arrange the labels in the requested order.
Given back: Q, P, R
(Q: 39 µg/mL, P: 217 µg/mL, R: 2070 µg/mL)

----------
Assay: Effect of pH on aqueous solubility
Conditions: 21 °C, pH 7, aqueous buffer, thermodynamic from solid
RECORDED ENDPOINT: solubility at 30 min (µg/mL)
Express your answer in µg/mL, writing the number without its unit.

Asked: // Input: NCCCCCC(O)(P(=O)(O)O)P(=O)(O)O [Compound 4, reference compound] . Output its solubility at 30 min only.
Given back: 3420

----------
Assay: Effect of pH on aqueous solubility
Settings: water, pH adjusted with NaOH or HCl, 21 °C, pH 7, aqueous buffer, thermodynamic from solid
RECORDED ENDPOINT: solubility at 30 min (µg/mL)

>  <MOLECULAR STRING>
NCCCCCCCCC(O)(P(=O)(O)O)P(=O)(O)O

>  <RECORDED ENDPOINT>
solubility at 30 min

>  <ENDPOINT VALUE>
1190

$$$$

[P] NCCCCCCCCCCC(O)(P(=O)(O)O)P(=O)(O)O
[Q] NCCCCCCCCCCCC(O)(P(=O)(O)O)P(=O)(O)O
Asked: Exercise: compare P and Q ; which one has the greater solubility at 30 min? Reply briefly: the label of your chosen item.
Given back: P
(P: 290 µg/mL, Q: 200 µg/mL)

----------
Assay: Effect of pH on aqueous solubility
Conditions: water, pH adjusted with NaOH or HCl, 21 °C, pH 11, aqueous buffer, thermodynamic from solid
RECORDED ENDPOINT: solubility at 30 min (µg/mL)

>  <MOLECULE>
NCCCCCCCCCCC(O)(P(=O)(O)O)P(=O)(O)O [Compound 8]

>  <RECORDED ENDPOINT>
solubility at 30 min

>  <VALUE UNIT>
µg/mL

>  <ENDPOINT VALUE>
370

$$$$

[P] NCCCCCCCCCCCC(O)(P(=O)(O)O)P(=O)(O)O [Compound 9]
[Q] NCCCCCCCCC(O)(P(=O)(O)O)P(=O)(O)O [Compound 6]
Asked: Exercise: compare P and Q ; which one has the greater solubility at 30 min? Reply briefly: the label of your chosen item.
Given back: Q

----------
Assay: Effect of pH on aqueous solubility
Conditions: water, pH adjusted with NaOH or HCl, 21 °C, pH 6, aqueous buffer, thermodynamic from solid
RECORDED ENDPOINT: solubility at 30 min (µg/mL)

>  <MOLECULAR STRING>
NCCCCCCCCCCCC(O)(P(=O)(O)O)P(=O)(O)O

>  <solubility at 30 min / µg/mL>
210

$$$$

[1] NCCCCCCCCCCC(O)(P(=O)(O)O)P(=O)(O)O
[2] NCCCCCCCCC(O)(P(=O)(O)O)P(=O)(O)O
Asked: Hey, which is lower on measured solubility at 30 min, 1 or 2 ? Reply briefly: the label of your chosen item.
Given back: 1

----------
Assay: Effect of pH on aqueous solubility
Details: water, pH adjusted with NaOH or HCl, 21 °C, pH 0, aqueous buffer, thermodynamic from solid
RECORDED ENDPOINT: solubility at 30 min (µg/mL)

>  <MOLECULAR STRING>
NCCCCCCCCCCCC(O)(P(=O)(O)O)P(=O)(O)O

>  <VALUE UNIT>
µg/mL

>  <solubility at 30 min>
130

$$$$

[P] NCCCCCCCCCCC(O)(P(=O)(O)O)P(=O)(O)O
[Q] NCCCCCCCCC(O)(P(=O)(O)O)P(=O)(O)O
Asked: Exercise: compare P and Q ; which one has the greater solubility at 30 min? Reply briefly: the label of your chosen item.
Given back: Q

----------
Test: Aqueous solubility of saturated solution at 21 °C (phosphorus determination by molybdenum blue spectrophotometry)
Conditions: saturated aqueous solution, 21 °C, agitation time 30 min
RECORDED ENDPOINT: pH of saturated solution

>  <COMPOUND>
NCCCCCCCCCC(O)(P(=O)(O)O)P(=O)(O)O [Compound 7]

>  <pH of saturated solution>
3.28

$$$$

[I] NCCCCC(O)(P(=O)(O)O)P(=O)(O)O [Compound 3]
[II] NCCCCCCCCCCCCCCCC(O)(P(=O)(O)O)P(=O)(O)O [Compound 10]
Asked: Hey, which is lower on measured pH of saturated solution, I or II ? Reply briefly: the label of your chosen item.
Given back: I
(I: 2.22, II: 7.79)

[I] NCCCCCCCC(O)(P(=O)(O)O)P(=O)(O)O [Compound 5]
[II] NCCC(O)(P(=O)(O)O)P(=O)(O)O [Compound 1]
Asked: Hey, which is lower on measured pH of saturated solution, I or II ? Reply briefly: the label of your chosen item.
Given back: I
